# credit: patent US7659401B2

biological target: human mGlu 5a receptor (Homo sapiens, UniProt P41594)
Sequence (P41594 21-1180 isoform P41594-2 limits assumed): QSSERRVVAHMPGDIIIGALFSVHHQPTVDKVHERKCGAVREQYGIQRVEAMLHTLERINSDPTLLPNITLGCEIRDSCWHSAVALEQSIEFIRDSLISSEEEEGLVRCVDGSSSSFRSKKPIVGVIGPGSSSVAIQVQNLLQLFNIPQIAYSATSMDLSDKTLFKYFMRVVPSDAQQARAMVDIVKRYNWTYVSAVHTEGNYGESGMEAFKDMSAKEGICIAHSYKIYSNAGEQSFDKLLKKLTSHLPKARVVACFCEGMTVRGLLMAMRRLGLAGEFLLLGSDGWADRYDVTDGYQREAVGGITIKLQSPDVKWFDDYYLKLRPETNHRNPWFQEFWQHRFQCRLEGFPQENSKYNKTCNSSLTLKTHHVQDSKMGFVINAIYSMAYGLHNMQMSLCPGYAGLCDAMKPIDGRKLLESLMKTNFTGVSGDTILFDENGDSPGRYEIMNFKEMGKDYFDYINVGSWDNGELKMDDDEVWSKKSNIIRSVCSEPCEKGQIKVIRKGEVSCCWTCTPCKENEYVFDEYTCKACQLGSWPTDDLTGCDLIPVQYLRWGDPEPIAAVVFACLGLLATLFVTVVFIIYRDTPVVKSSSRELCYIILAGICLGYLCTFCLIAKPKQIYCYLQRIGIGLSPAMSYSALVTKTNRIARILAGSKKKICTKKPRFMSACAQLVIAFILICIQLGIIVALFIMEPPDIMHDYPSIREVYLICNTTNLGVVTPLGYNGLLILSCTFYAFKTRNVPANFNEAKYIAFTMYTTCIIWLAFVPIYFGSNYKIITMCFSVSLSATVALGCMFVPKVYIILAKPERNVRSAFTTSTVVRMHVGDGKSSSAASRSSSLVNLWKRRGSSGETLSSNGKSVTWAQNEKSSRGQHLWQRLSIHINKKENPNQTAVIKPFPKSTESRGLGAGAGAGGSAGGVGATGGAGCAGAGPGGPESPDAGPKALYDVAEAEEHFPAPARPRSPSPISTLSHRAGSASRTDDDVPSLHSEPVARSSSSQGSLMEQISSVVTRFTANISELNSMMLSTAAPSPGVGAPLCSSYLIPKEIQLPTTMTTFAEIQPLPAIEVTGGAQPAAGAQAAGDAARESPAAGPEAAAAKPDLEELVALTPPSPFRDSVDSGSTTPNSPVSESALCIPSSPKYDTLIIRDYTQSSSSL
readout-type: Ki (nM)

# example entries with known answers
For Cc1csc(Nc2ncc(-c3cccnc3)c3sc(C)nc23)n1 , what is its reported Ki?
42

Queued: Cc1nc(Nc2ncc(-c3cccnc3)c3sc(C)nc23)cs1
37

One more molecule: Cc1csc(Nc2ncc(-c3cncnc3)c3sc(C)nc23)n1
61

a. Cc1nc2c(Nc3ccc(F)cn3)ncc(-c3cccnc3)c2s1
b. Cc1nc2c(Nc3cccc(Cl)c3)nccc2s1
Sort a and b by Ki descending and give the first. Record your answer as the label of the chosen record.
a
